System: NCI-H661
Assay: Antiproliferative activity against human NCI-H661 cells assessed as reduction in cell viability incubated for 72 hrs by SRB assay
Conditions: NCI-H661, 72 h
reported_metric: IC50

Write IC50 of COc1ccc2c(OCc3nnc4ncc(-c5ccccc5)nn34)ccnc2c1 ; system used: NCI-H661
> 50 µM

###

Target: UniProt P08684
Sequence (P08684 whole entry): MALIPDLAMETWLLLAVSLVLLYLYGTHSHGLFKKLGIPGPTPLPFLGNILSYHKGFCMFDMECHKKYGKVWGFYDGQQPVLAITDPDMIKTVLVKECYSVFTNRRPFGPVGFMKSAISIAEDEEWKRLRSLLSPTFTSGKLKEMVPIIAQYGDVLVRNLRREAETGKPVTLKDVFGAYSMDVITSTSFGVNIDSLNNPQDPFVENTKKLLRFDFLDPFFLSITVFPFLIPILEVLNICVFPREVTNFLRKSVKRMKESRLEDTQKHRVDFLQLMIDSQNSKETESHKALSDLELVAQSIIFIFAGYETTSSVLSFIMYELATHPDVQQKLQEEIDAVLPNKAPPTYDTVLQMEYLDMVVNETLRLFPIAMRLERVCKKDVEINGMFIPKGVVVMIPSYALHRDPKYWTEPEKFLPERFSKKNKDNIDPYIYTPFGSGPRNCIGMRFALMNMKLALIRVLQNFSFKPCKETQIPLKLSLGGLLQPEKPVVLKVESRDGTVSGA
Assay: Inhibition of CYP3A4 (unknown origin)
Assay type: ADME
reported_metric: IC50

Assign IC50 to the following record: COc1ccc2c(NCc3nnc4ccc(-c5ccccc5)nn34)ccnc2c1
> 50 µM

###

Tested on: NIH3T3
Assay: Antiproliferative activity against mouse NIH3T3 cells assessed as reduction in cell growth incubated for 72 hrs by SRB assay
Conditions: NIH3T3, 72 h
pIC50: −log10 of the molar value.
reported_metric: pIC50

Assign pIC50 to the following record: COc1ccc2c(OCc3nnc4ncc(-c5ccccc5)nn34)ccnc2c1
< 4.30
